Taken from ChEMBL document CHEMBL1151716.

TEST NAME: Solubility in heavy water
Assay type: physicochemical

[
  {
    "LINE NOTATION": "CCCCC(=O)c1ccc(OC)c(OC2CCNCC2)c1",
    "solubility [µM]": 800
  }
]
